# slope values compiled below
targetOrTestSystem: Alpha-2C adrenergic receptor (Homo sapiens)
testProtocol: modulators of alpha2C/GIRK thallium flux, primary screen, cell-based, HEK293 alpha2C/GIRK1/2 (AID 624);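 further: slope of fluorescence ratio to pre-addition baseline per second over 15 to 24 s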
measurementParameters: thallium flux BTC fluorescence, at 10 µM, actives lie on both sides
quantityKind: slope

>>> testresult("COc1ccc(Nc2ncc3c(n2)CC(c2ccc(OC)cc2)CC3=O)cc1 (stereo unspecified)")
0.0047
>>> testresult("Cc1cc(C)n(-c2nc3c(c(=O)[nH]c(=O)n3C)n2Cc2ccc(F)cc2)n1")
0.00739
>>> testresult("CCCc1ccc(S(=O)(=O)NCCc2ccncc2)cc1")
0.00524
>>> testresult("Cc1nc2sc(C(c3cccs3)N3CC(C)CC(C)C3)c(O)n2n1 (stereo unspecified)")
0.00614
>>> testresult("CCCC(=O)C1=C(N(C)c2ccccc2)CC(C)(C)C(C(=O)OC)C1=O (stereo unspecified)")
0.00268
>>> testresult("CCN(CC)Cc1csc(C(N)=O)c1")
0.00652

###

targetOrTestSystem: Voltage-gated potassium channel subunit beta-2 (Rattus norvegicus)
testProtocol: KvBeta enzyme negative modulators, primary screen, biochemical, NADPH fluorescence (AID 622);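 further: slope of raw intensity against log time taken from 70 to 1610 s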
measurementParameters: recombinant KvBeta, 4-cyanobenzaldehyde reduction, at 10 µM, stronger effect = higher value
fluorescence slope vs -0.5: at or above is True, below is False.

>>> group("CC(C)(C)c1cc(-c2ccco2)c(C#N)c(SCC#N)n1")
"True"
>>> group("COCCN(C(=O)CCC(=O)Nc1ccccn1)C(C(=O)NC1CCCC1)c1ccc(OC)cc1 (stereo not given)")
"True"
>>> group("CN(C#N)c1nc(N2CCOCC2)nc(N2CCOCC2)n1")
"False"
>>> group("O=C(NCc1ccccn1)c1coc(=O)c(Br)c1")
"True"
>>> group("C=C(C)CSc1nnc2n(C)c(=O)c3c4c(sc3n12)CCC4")
"True"
>>> group("CN(CC(=O)Nc1nccs1)S(=O)(=O)c1ccc(F)cc1")
"True"
>>> group("Cc1ccc(C)c(N2CCN(C(=O)c3cc4ccccn4n3)CC2)c1")
"False"
>>> group("c1coc(Cn2nnnc2CN2CCN(C3CCCC3)CC2)c1")
"True"
>>> group("Cn1c(=O)c2c(nc(NCCCO)n2C/C=C/c2ccccc2)n(C)c1=O")
"True"
>>> group("O=C1C(=O)N(Cc2cccnc2)C(c2ccccn2)/C1=C(/O)c1ccc(F)cc1 (stereo not given)")
"True"
>>> group("O=C(Nc1ccccc1)N(O)c1ccc(Cl)cc1")
"True"
>>> group("Cc1ccc(C(=O)NC(Cc2c[nH]c3ccccc23)C(=O)O)o1 (stereo not given)")
"True"
>>> group("O=C(c1ccco1)N1CCN(C(=O)C2CC(c3ccc(F)cc3)=NO2)CC1 (stereo not given)")
"False"
>>> group("Cc1c(NC(=O)C(C)OC(=O)c2cc3c4ccccc4n(C)c3s2)c(=O)n(-c2ccccc2)n1C (stereo not given)")
"True"

###

targetOrTestSystem: Dual specificity protein phosphatase 6 (Homo sapiens) (UniProt Q16828)
Sequence (Q16828 whole entry, looked up): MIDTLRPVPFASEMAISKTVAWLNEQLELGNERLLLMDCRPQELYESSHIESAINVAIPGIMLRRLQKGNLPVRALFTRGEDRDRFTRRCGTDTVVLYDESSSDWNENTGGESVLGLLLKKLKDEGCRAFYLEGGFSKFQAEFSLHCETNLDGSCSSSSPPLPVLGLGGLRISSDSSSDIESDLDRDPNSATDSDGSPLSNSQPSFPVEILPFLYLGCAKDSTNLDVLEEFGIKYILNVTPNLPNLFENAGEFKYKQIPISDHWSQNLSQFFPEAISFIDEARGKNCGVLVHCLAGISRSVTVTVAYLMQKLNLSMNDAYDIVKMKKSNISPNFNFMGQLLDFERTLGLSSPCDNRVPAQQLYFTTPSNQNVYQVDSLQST
testProtocol: DUSP6 inhibitors restoring Erk phosphorylation by chemical complementation, primary imaging in DUSP6-transfected HeLa (AID 609);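 further: phospho-Erk level distribution per well compared with pooled transfected vehicle control wells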
measurementParameters: HeLa MKP-3 transfected, phospho-Erk imaging KS statistic; at 10 µM; stronger effect = higher value; cells stimulated with TPA for 15 min
quantityKind: inhibition (%)

>>> testresult("Cc1ccc(-n2[nH]c(C)c(C=Nc3cc(C)ccn3)c2=O)cc1")
-13.3
>>> testresult("CC(=O)C1=C(O)C(=O)N(c2ccc(S(N)(=O)=O)cc2)C1c1ccccc1F (stereo not given)")
11.9
>>> testresult("COCc1n[nH]c(=S)n1-c1cccc2ccccc12")
5.95
>>> testresult("Cc1cc(=O)oc(C)c1C(=O)n1nc(C)c2c1C[C@@H]1[C@H]2C1(C)C")
15.9
>>> testresult("CCc1nc(N2CCN(C(=O)c3ccccc3)CC2)c(C#N)c2c1COC(C)(C)C2")
3.42
>>> testresult("Cc1cc(=O)oc(C)c1C(=O)NCCc1ccccc1")
5.35
>>> testresult("CC(NC(=O)Nc1ccc(O)cc1)(C(F)(F)F)C(F)(F)F")
-3.95
>>> testresult("Cc1ccc2cc(CNC(C)(C)C)c(=O)[nH]c2c1")
7.7
>>> testresult("CC(NC(=O)NCCCn1ccnc1)(C(F)(F)F)C(F)(F)F")
-13.3
>>> testresult("COc1ccc(-n2ncc3c(NCCCn4ccnc4)ncnc32)cc1")
3.42
>>> testresult("O=C(CN1C2=NCCN2c2ccccc21)N1CCOCC1")
-7.67
>>> testresult("CC1(C)Cc2c(C#N)c(SCc3nc4ccccc4[nH]3)nc(N3CCOCC3)c2CO1")
3.97
>>> testresult("CCn1nc(NC(=O)c2ccco2)c2cc3ccccc3nc21")
-6.48
>>> testresult("CCCSc1nc(O)c(C2OC(=O)c3c2ccc(OC)c3OC)c(=O)n1C (stereo not given)")
7.93
>>> testresult("CCOc1ccc(C2C(C#N)=C(N)Oc3cc(C)n(CCN4CCOCC4)c(=O)c32)cc1OCC (stereo not given)")
-10.1
